SYSTEM_TESTED: interaction between Bcl-2 and Bax (Homo sapiens, UniProt P10415)
Construct: expressed in transfected cells; host or cells: Hela cells
Sequence (P10415 whole entry): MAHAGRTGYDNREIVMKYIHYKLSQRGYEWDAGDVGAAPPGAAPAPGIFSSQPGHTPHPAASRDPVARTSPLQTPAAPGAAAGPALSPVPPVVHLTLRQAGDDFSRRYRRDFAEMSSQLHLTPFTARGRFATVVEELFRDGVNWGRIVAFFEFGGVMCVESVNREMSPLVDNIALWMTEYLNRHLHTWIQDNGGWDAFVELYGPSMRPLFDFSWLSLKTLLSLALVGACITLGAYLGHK
PROTOCOL_DETAILS: Intracellular FRET, Bcl-2-CFP/Bax-YFP in Hela cells
Format: cell-based
CONDITION_DESCRIPTION: at the concentration given
The reader will find reported Time (time period after which the interaction between Bcl-2 and Bax was interfered) values listed item by item below.
The number alone won't do; follow it with the unit.

smiles_record=O=C1N=C2C(=C1NCCCc1ccccc1)c1ccc(N3CCSCC3)c3cccc2c13 system_tested="interaction between Bcl-2 and Bax (Homo sapiens, UniProt P10415)" endpoint_value="2 h"
smiles_record=CCCCCCNC1=C2C(=NC1=O)c1cccc3cccc2c13 system_tested="interaction between Bcl-2 and Bax (Homo sapiens, UniProt P10415)" endpoint_value="3 h"
smiles_record=CCCCNC1=C2C(=NC1=O)c1cccc3c(Oc4ccc(C(C)C)cc4)ccc2c13 system_tested="interaction between Bcl-2 and Bax (Homo sapiens, UniProt P10415)" endpoint_value="2 h"

Then there is this compound:
Field: Time (time period after which the interaction between Bcl-2 and Bax was interfered) (interaction between Bcl-2 and Bax (Homo sapiens, UniProt P10415)). Entry: CCOc1ccc2c3c(cccc13)C1=NC(=O)C(NCCCc3ccccc3)=C12
5 h
